- Read-out: Tumor necrosis factor (Homo sapiens) (UniProt P01375)
- Sequence (P01375 whole entry, looked up): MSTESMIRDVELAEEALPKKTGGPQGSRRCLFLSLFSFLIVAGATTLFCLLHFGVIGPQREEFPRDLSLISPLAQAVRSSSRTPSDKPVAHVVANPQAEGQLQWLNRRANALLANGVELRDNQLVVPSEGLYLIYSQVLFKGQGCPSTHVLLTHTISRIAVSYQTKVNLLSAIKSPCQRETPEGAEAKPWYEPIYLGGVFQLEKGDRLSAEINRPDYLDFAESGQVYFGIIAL
- test details: BSK_LPS_TNFa: BioMAP Diversity Plus: LPS Assay for Tumour Necrosis Factor alpha (TNFa) Biomarker Activity (AID 2283085)
- condition set: primary human HUVEC with PBMC; actives raise or lower the signal
The source made the active and inactive calls. Rule for the calls: active = hit-call score of the fitted dose curve at least 0.9, where 1 is the maximum; inactive = score below 0.9.
Write down one outcome, taken from active, inactive

Exercise: What was the test verdict on "CO[C@H]1/C=C/O[C@@]2(C)Oc3c(C)c(O)c4c(O)c(c(/C=N/N5CCN(C)CC5)c(O)c4c3C2=O)NC(=O)/C(C)=C\C=C\[C@H](C)[C@H](O)[C@@H](C)[C@@H](O)[C@@H](C)[C@H](OC(C)=O)[C@@H]1C" ?
Solution: inactive

Exercise: What was the test verdict on "O=c1ccc2ccccc2o1" ?
Solution: inactive

Exercise: What was the test verdict on "CCOC(=O)O[C@H](C)OC(=O)c1ccc2c(c1)cc(C(=O)NC1CCN(C(C)C)CC1)n2Cc1cc(-c2ccc(Cl)s2)on1" ?
Solution: active
